// provenance: ChEMBL document CHEMBL1154276

Test system: Candida tropicalis
Test Summary: Antifungal activity against Candida tropicalis by serial dilution method after 24 hrs
Assay type: functional
Property Name: MIC80 (ng/mL)
One number for each entry, in ng/mL.

Here is how some compounds turned out for MIC80.
Cc1ccccc1OCCCCN(C)CC(O)(Cn1cncn1)c1ccc(F)cc1F (centres undefined) : 15.6
CN(CCCCOc1ccc([N+](=O)[O-])cc1)CC(O)(Cn1cncn1)c1ccc(F)cc1F (centres undefined) : 4
CN(CCCCOc1ccc(F)cc1)CC(O)(Cn1cncn1)c1ccc(F)cc1F (centres undefined) : 4
CN(CCCCOc1ccc(Cl)cc1)CC(O)(Cn1cncn1)c1ccc(F)cc1F (centres undefined) : 1
COc1ccc(OCCCCN(C)CC(O)(Cn2cncn2)c2ccc(F)cc2F)cc1 (centres undefined) : 4
CN(CCCCOc1ccc(OC(F)(F)F)cc1)CC(O)(Cn1cncn1)c1ccc(F)cc1F (centres undefined) : 4
CN(CCCCOc1cccc([N+](=O)[O-])c1)CC(O)(Cn1cncn1)c1ccc(F)cc1F (centres undefined) : 4
C[C@@H](c1ncncc1F)[C@](O)(Cn1cncn1)c1ccc(F)cc1F : 1

// lookup MIC80 for CN(CCCCOc1ccc(C(C)(C)C)cc1)CC(O)(Cn1cncn1)c1ccc(F)cc1F (centres undefined)
62.5

* * *

Tested on: Candida tropicalis
Test Summary: Antifungal activity against Candida tropicalis by serial dilution method after 24 hrs
Format: functional
Would you mind telling me the reported MIC80 of each entry?
One number for each entry, in mg/L.

CN(CCCCOc1ccc(OCc2ccccc2)cc1)CC(O)(Cn1cncn1)c1ccc(F)cc1F (centres undefined) : 0.0156

Consider the following items and state reported MIC80 for each.
1. CN(CCCCOc1cccc(Br)c1)CC(O)(Cn1cncn1)c1ccc(F)cc1F (centres undefined)
2. Cc1cccc(OCCCCN(C)CC(O)(Cn2cncn2)c2ccc(F)cc2F)c1 (centres undefined)
3. OC(Cn1cncn1)(Cn1cncn1)c1ccc(F)cc1F [FLUCONAZOLE]

1. 0.001
2. 0.0156
3. 1

* * *

Tested on: Candida tropicalis
Test Summary: Antifungal activity against Candida tropicalis by serial dilution method after 24 hrs
Type: functional
Property Name: MIC80 (mg/L)
Numbers only, in mg/L.

Here is how some compounds turned out for MIC80.
CN(CCCCOc1ccc(Br)cc1)CC(O)(Cn1cncn1)c1ccc(F)cc1F (centres undefined) : 0.001
CN(CCCCOc1ccccc1[N+](=O)[O-])CC(O)(Cn1cncn1)c1ccc(F)cc1F (centres undefined) : 0.0625
CCC(C)n1ncn(-c2ccc(N3CCN(c4ccc(OCC5COC(Cn6cncn6)(c6ccc(Cl)cc6Cl)O5)cc4)CC3)cc2)c1=O (centres undefined) : 0.0156

Consider the following items and state reported MIC80 for each.
1. CN(CCCCOc1ccc(N)cc1)CC(O)(Cn1cncn1)c1ccc(F)cc1F (centres undefined)
2. CN(CCCCOc1ccccc1N)CC(O)(Cn1cncn1)c1ccc(F)cc1F (centres undefined)
3. CN(CCCCOc1ccccc1Cl)CC(O)(Cn1cncn1)c1ccc(F)cc1F (centres undefined)
4. Cc1ccc(OCCCCN(C)CC(O)(Cn2cncn2)c2ccc(F)cc2F)cc1 (centres undefined)

1: 0.0156; 2: 0.0156; 3: 0.0156; 4: 0.004

Consider the following items and state reported MIC80 for each.
1. CN(CCCCOc1ccccc1Br)CC(O)(Cn1cncn1)c1ccc(F)cc1F (centres undefined)
2. CN(CCCCOc1cccc(N)c1)CC(O)(Cn1cncn1)c1ccc(F)cc1F (centres undefined)

1: 0.0156; 2: 0.0156
